Sourced from patent US20250332173A1

- System: HTT mRNA
- protocol-description: RT-qPCR splicing assay, HTT canonical junction (CJ) and alternative junction (AJ) mRNA
- Assay type: cell-based, human
- experimental-parameters: Homo sapiens, increase in HTT alternative junction (AJ) mRNA, RT-qPCR; read-out: HTT AJ AC50
quantity: AC50

[[record]]
compound = "Cn1cc2cc(-c3ccc4c(=O)n(C56CCC(N)(CC5)C6)ccc4n3)c(O)cc2n1"
quantity = "AC50"
result_value = "100 to 1000 nM"

[[record]]
compound = "Cc1cn2nc(-n3cnc4ccc(N5CCN(C)CC5)cc4c3=O)cc(C)c2n1"
quantity = "AC50"
result_value = "1000 to 10000 nM"

[[record]]
compound = "Cc1cc(-c2ccc3c(=O)n(C4CCN(C)CC4)cnc3c2)cc2cn(C)nc12"
quantity = "AC50"
result_value = "1000 to 10000 nM"

[[record]]
compound = "Cc1cn2nc(-c3cc(O)c4c(=O)n(C5CCNC5)ccc4c3)cc(C)c2n1 (stereo not shown)"
quantity = "AC50"
result_value = "1000 to 10000 nM"


---

- Tested on: HTT mRNA
- protocol-description: RT-qPCR splicing assay, HTT canonical junction (CJ) and alternative junction (AJ) mRNA
- Type: cell-based, human
- experimental-parameters: Homo sapiens; canonical junction qPCR panel, Table 5; read-out: HTT (decrease in CJ mRNA levels, IC50)
quantity: IC50

[[record]]
structure_as_smiles = "Cc1cn2cc(-c3cc(F)c4c(=O)n([C@@H]5CNC[C@H]5F)ccc4c3)cc(F)c2n1"
quantity = "IC50"
result_value = "> 10 µM"

[[record]]
structure_as_smiles = "Cc1cn2cc(-n3cnc4ccc(N5CCN(C)CC5)cc4c3=O)cc(F)c2n1"
quantity = "IC50"
result_value = "1 to 10 µM"

[[record]]
structure_as_smiles = "Cc1c(O)c(-c2ncc3c(=O)n(N4CCNCC4)ccc3n2)cc2cn(C)nc12"
quantity = "IC50"
result_value = "0.1 to 1 µM"

[[record]]
structure_as_smiles = "Cc1cn2cc(-c3ccc4c(=O)n([C@H]5CCN[C@@H](C)C5)ccc4n3)cc(F)c2n1"
quantity = "IC50"
result_value = "1 to 10 µM"


---

Listed below: AC50 values for each entry.
- Test system: HTT mRNA
- protocol-description: RT-qPCR splicing assay, HTT canonical junction (CJ) and alternative junction (AJ) mRNA
- Type: cell-based, human
- experimental-parameters: Homo sapiens, increase in HTT alternative junction (AJ) mRNA, RT-qPCR; read-out: HTT AJ AC50
quantity: AC50

[[record]]
compound = "Cc1cn2cc(-c3ccc4c(=O)n(C5CCN(C)CC5)cnc4c3)ncc2n1 [Compound 308]"
result_value = "1 to 10 µM"

[[record]]
compound = "Cc1cn2cc(-c3ccc4c(=O)n(C5CCNC6(CC6)C5)ncc4c3)cc(Cl)c2n1 (centres unmarked) [Compound 510]"
result_value = "0.1 to 1 µM"

[[record]]
compound = "Cc1cn2nc(-c3cc(F)c4c(=O)n(C5CCNCC5)ncc4c3)cc(C)c2n1 [Compound 540]"
result_value = "< 0.1 µM"

[[record]]
compound = "Cc1cn2nc(-c3cc(F)c4c(=O)n(C5CCN(C)CC5)ccc4c3)cc(C)c2n1 [Compound 400]"
result_value = "< 0.1 µM"

[[record]]
compound = "Cc1cn2cc(-c3ccc4c(c3)CCN(C3CCNCC3)C4=O)cc(F)c2n1 [Compound 247]"
result_value = "1 to 10 µM"

[[record]]
compound = "CN(c1ccc2c(=O)n(-c3ccc4nn(C)cc4c3)cnc2c1)C1CCNCC1 [Compound 180]"
result_value = "> 10 µM"

[[record]]
compound = "Cc1cn2cc(-c3ccc4c(=O)n([C@H]5CCNC6(CC6)C5)ccc4n3)cc(F)c2n1 [Compound 1511]"
result_value = "0.1 to 1 µM"

[[record]]
compound = "Cc1c(O)c(-c2ncc3c(=O)n(C4CCN(C)CC4)ccc3n2)cc2cn(C)nc12 [Compound 1304]"
result_value = "0.1 to 1 µM"

